The following sequences are listed with their measured IFN-γ Produced ng values.
Tested on: C. trachomatis-specific CD8^+ murine T cells
Experiment: IFN-γ ELISA of C. trachomatis-specific CD8+ murine T cells stimulated with peptide-pulsed macrophages
Format: cell-based, mouse
Conditions: CT242 and CT812 peptides (CD8+ Ag); mean (± standard deviation) of duplicate samples

biopolymer.sequence	tested.system	IFN-γ Produced ng
FQEKDADTL [CT812 peptide tested with CD8+ T cells]	C. trachomatis-specific CD8^+ murine T cells	0.09 (±0.03) ng
GQSVNELVY [CT812 peptide tested with CD8+ T cells]	C. trachomatis-specific CD8^+ murine T cells	0.03 (±0.02) ng
LNQSNLKRM (listed as Chlamydia trachomatis) [amino acids 112-120 of the CT242 polypeptide]	C. trachomatis-specific CD8^+ murine T cells	6.5 (±2.4) ng

Request: What IFN-γ Produced ng value was documented for this sequence, AALYSTEDL [CT812 peptide tested with CD8+ T cells] ?
Result: 0.02 (±0.02) ng

Request: Tell me the measured IFN-γ Produced ng of FSVTNPVVF (listed as Chlamydia trachomatis) [amino acids 103-111 of the CT812 polypeptide] , please.
Result: 2.6 (±0.3) ng

Request: I am curious: what IFN-γ Produced ng value has been reported for SNLKRMQKI [CT242 peptide tested with CD8+ T cells] ?
Result: 0.40 (±0.07) ng

Request: Recorded IFN-γ Produced ng of QSVNELVYV [CT812 peptide tested with CD8+ T cells] , please.
Result: 0.01 (±0.01) ng

Request: Can you share its IFN-γ Produced ng? I mean this sequence: LEFASCSSL [CT812 peptide tested with CD8+ T cells]
Result: 0.06 (±0.01) ng

Request: Recorded IFN-γ Produced ng for FTSSNLDSP [CT812 peptide tested with CD8+ T cells] , please?
Result: 0.04 (±0.01) ng

Request: Dear colleague, I am looking for the recorded IFN-γ Produced ng of the following sequence: SQAEGQYRL [CT812 peptide tested with CD8+ T cells]
Result: 0.03 (±0.3) ng

Request: Endpoint output: IFN-γ Produced ng of YQILNQSNL (listed as Chlamydia trachomatis) [amino acids 109-117 of the CT242 polypeptide] . Value?
Result: >230 ng

Where do these numbers come from? They come from patent US20100260791A1.
